test system: rodent lifetime carcinogenesis bioassay, tumor incidence TD50; assay: carcinogenic potency in animals, long-term in vivo studies, CPDB compilation (AID 1745844); settings: rat; strain MRC; females; by gavage; site: any site (literature study); lesion: one or several types; types not named; dosed 73 weeks; study length 77 weeks
reportedProperty: TD50 (mg/kg/day)
Numbers only, in mg/kg/day.

// query Return value of TD50 for input CC(=O)CN(CC(C)=O)N=O , no commentary.
// result 0.171

====

system: rodent lifetime carcinogenesis bioassay, tumor incidence TD50; assay: carcinogenic potency in animals, long-term in vivo studies, CPDB compilation (AID 1745844); conditions: mouse; strain B6C3F1; males; inhaled; site: liver; lesion: hepatocellular adenoma + hepatocellular carcinoma; dosed 82 weeks; study length 104 weeks
reportedProperty: TD50

// query Return value of TD50 for input C=CC=C , no commentary.
// result 23.9 mg/kg/day

====

test system: rodent lifetime carcinogenesis bioassay, tumor incidence TD50; test: carcinogenic potency in animals, long-term in vivo studies, CPDB compilation (AID 1745844); conditions: rat; strain Sprague-Dawley; females; by gavage; site: any site (literature study); lesion: several types; types named in the paper; dosed 52 weeks; study length 156 weeks
reportedProperty: TD50 (mg/kg/day)
Answers are plain numbers, in mg/kg/day.

// query // output TD50; input c1ccc(C2CO2)cc1 (stereo unspecified) ; system rodent lifetime carcinogenesis bioassay, tumor incidence TD50
// result 164

====

tested on: rodent lifetime carcinogenesis bioassay, tumor incidence TD50; experiment: carcinogenic potency in animals, long-term in vivo studies, CPDB compilation (AID 1745844); conditions: mouse; strain NMRI; males; inhaled; site: kidney; lesion: cystadenocarcinoma; dosed 78 weeks; study length 127 weeks
reportedProperty: TD50

// query // output TD50; input ClC#CCl ; system rodent lifetime carcinogenesis bioassay, tumor incidence TD50
// result 0.501 mg/kg/day

====

tested on: rodent lifetime carcinogenesis bioassay, tumor incidence TD50; assay: carcinogenic potency in animals, long-term in vivo studies, CPDB compilation (AID 1745844); settings: rat; strain MRC; males; by gavage; site: liver; lesion: several types; types named in the paper; dosed 51 weeks; study length 58 weeks
reportedProperty: TD50

// query Return value of TD50 for input CC(=O)CN(C)N=O , no commentary.
// result 0.252 mg/kg/day

====

tested on: rodent lifetime carcinogenesis bioassay, tumor incidence TD50; assay: carcinogenic potency in animals, long-term in vivo studies, CPDB compilation (AID 1745844); conditions: rat; strain Osborne-Mendel; females; by gavage; site: any site (literature study); lesion: several types; types named in the paper; dosed 78 weeks; study length 111 weeks
Active and inactive are the calls of the source. How the calls were made is not given here.
reportedProperty: TD50

// query Return value of TD50 for input O=S1(=O)CC=CC1 , no commentary.
// result 5370 mg/kg/day (inactive)

====

system: rodent lifetime carcinogenesis bioassay, tumor incidence TD50; assay: carcinogenic potency in animals, long-term in vivo studies, CPDB compilation (AID 1745844); conditions: mouse; strain XVII/G; males; in feed; site: lung; lesion: one or several types; types not named; dosed 104 weeks; study length 104 weeks
Active and inactive are the calls of the source. No rule for the calls is given here.
reportedProperty: TD50

// query Return value of TD50 for input Oc1c(Cl)cc(Cl)c(Cl)c1Cc1c(O)c(Cl)cc(Cl)c1Cl , no commentary.
// result 17.8 mg/kg/day (inactive)

====

system: rodent lifetime carcinogenesis bioassay, tumor incidence TD50; experiment: carcinogenic potency in animals, long-term in vivo studies, CPDB compilation (AID 1745844); conditions: rat; strain Charles River CD (Sprague-Dawley); males; inhaled; site: any site (literature study); lesion: malignant tumor; dosed 110 weeks; study length 110 weeks
Calls of active or inactive are those of the source. The rule behind the calls is not given here.
reportedProperty: TD50

// query Return value of TD50 for input Cc1ccc(N=C=O)cc1N=C=O , no commentary.
// result 6.18 mg/kg/day (inactive)

====

tested on: rodent lifetime carcinogenesis bioassay, tumor incidence TD50; experiment: carcinogenic potency in animals, long-term in vivo studies, CPDB compilation (AID 1745844); conditions: rat; strain Fischer 344; females; in feed; site: mammary gland; lesion: adenoma + carcinoma + fibroadenoma; dosed 104 weeks; study length 105 weeks
reportedProperty: TD50

// query Return value of TD50 for input OCC(CO)(CBr)CBr , no commentary.
// result 83.8 mg/kg/day

====

test system: rodent lifetime carcinogenesis bioassay, tumor incidence TD50; assay: carcinogenic potency in animals, long-term in vivo studies, CPDB compilation (AID 1745844); settings: rat; strain Fischer 344; males; in feed; site: skin; lesion: keratoacanthoma; dosed 12 weeks; study length 103 weeks
reportedProperty: TD50 (mg/kg/day)
One number for each entry, in mg/kg/day.

// query Return value of TD50 for input OCC(CO)(CBr)CBr , no commentary.
// result 42.5

====

tested on: rodent lifetime carcinogenesis bioassay, tumor incidence TD50; assay: carcinogenic potency in animals, long-term in vivo studies, CPDB compilation (AID 1745844); conditions: rat; strain Sprague-Dawley; males; in feed; site: kidney; lesion: tubular adenoma; dosed 46 weeks; study length 64 weeks
reportedProperty: TD50

// query Return value of TD50 for input O=CNNc1nc(-c2ccc([N+](=O)[O-])o2)cs1 , no commentary.
// result 47.6 mg/kg/day

====

tested on: rodent lifetime carcinogenesis bioassay, tumor incidence TD50; test: carcinogenic potency in animals, long-term in vivo studies, CPDB compilation (AID 1745844); conditions: mouse; strain B6C3F1; females; inhaled; site: liver; lesion: hepatocellular carcinoma; dosed 52 weeks; study length 104 weeks
reportedProperty: TD50 (mg/kg/day)
Give bare numbers, in mg/kg/day.

// query Return value of TD50 for input ClCCl , no commentary.
// result 4960

====

test system: rodent lifetime carcinogenesis bioassay, tumor incidence TD50; assay: carcinogenic potency in animals, long-term in vivo studies, CPDB compilation (AID 1745844); conditions: mouse; strain Charles River CD1; females; in drinking water; site: lung; lesion: several types; types named in the paper; dosed 52 weeks; study length 52 weeks
reportedProperty: TD50

// query // output TD50; input CN(C)N ; system rodent lifetime carcinogenesis bioassay, tumor incidence TD50
// result 3.68 mg/kg/day

====

tested on: rodent lifetime carcinogenesis bioassay, tumor incidence TD50; assay: carcinogenic potency in animals, long-term in vivo studies, CPDB compilation (AID 1745844); conditions: rat; strain Marshall; females; by gavage; site: any site (literature study); lesion: several types; types named in the paper; dosed 103 weeks; study length 104 weeks
reportedProperty: TD50 (mg/kg/day)
Give bare numbers, in mg/kg/day.

// query Return value of TD50 for input ClC=C(Cl)Cl , no commentary.
// result 709

====

system: rodent lifetime carcinogenesis bioassay, tumor incidence TD50; assay: carcinogenic potency in animals, long-term in vivo studies, CPDB compilation (AID 1745844); settings: rat; strain Wistar; males; in drinking water; site: liver; lesion: cholangioma; dosed 104 weeks; study length 104 weeks
reportedProperty: TD50

// query // output TD50; input O=C1OC(O)C(C(Cl)Cl)=C1Cl (stereo unspecified) ; system rodent lifetime carcinogenesis bioassay, tumor incidence TD50
// result 31.4 mg/kg/day

====

tested on: rodent lifetime carcinogenesis bioassay, tumor incidence TD50; experiment: carcinogenic potency in animals, long-term in vivo studies, CPDB compilation (AID 1745844); settings: rat; strain Wistar; females; in feed; site: small intestine; lesion: adenocarcinoma; dosed 96 weeks; study length 101 weeks
reportedProperty: TD50

// query // output TD50; input O=P(O)(OCC(Br)CBr)OCC(Br)CBr (stereo unspecified) ; system rodent lifetime carcinogenesis bioassay, tumor incidence TD50
// result 179 mg/kg/day

====

tested on: rodent lifetime carcinogenesis bioassay, tumor incidence TD50; test: carcinogenic potency in animals, long-term in vivo studies, CPDB compilation (AID 1745844); settings: rat; strain Fischer 344; females; in drinking water; site: liver; lesion: neoplastic nodule; dosed 104 weeks; study length 107 weeks
reportedProperty: TD50

// query // output TD50; input O=C1CCCCC1 ; system rodent lifetime carcinogenesis bioassay, tumor incidence TD50
// result 6300 mg/kg/day

====

tested on: rodent lifetime carcinogenesis bioassay, tumor incidence TD50; assay: carcinogenic potency in animals, long-term in vivo studies, CPDB compilation (AID 1745844); conditions: hamster; strain Syrian Golden; females; by gavage; site: liver; lesion: several types; types named in the paper; dosed 35 weeks; study length 55 weeks
reportedProperty: TD50 (mg/kg/day)
One number for each entry, in mg/kg/day.

// query Return value of TD50 for input CC(=O)CNCC(O)C(O)N=O (stereo unspecified) , no commentary.
// result 9.92

====

test system: rodent lifetime carcinogenesis bioassay, tumor incidence TD50; experiment: carcinogenic potency in animals, long-term in vivo studies, CPDB compilation (AID 1745844); conditions: mouse; strain B6C3F1; females; by gavage; site: lung; lesion: adenoma; dosed 104 weeks; study length 104 weeks
Calls of active or inactive are those of the source. No rule for the calls is given here.
reportedProperty: TD50

// query Return value of TD50 for input CCOC(=O)[C@H](CCc1ccccc1)N[C@@H](C)C(=O)N1Cc2ccccc2C[C@H]1C(=O)O , no commentary.
// result 5070 mg/kg/day (inactive)
